system_tested: Mouse importin-α1 lacking the IBB domain (mImpα1ΔIBB; residues 70–529) (mouse, UniProt P52293 70-529)
experimental_protocol: ELISA; solid phase plate binding assay, no cross-linking: MaxiSorp plates coated with 25 nM GST-cNLS or GST in PBS, 0.2 mM PMSF, 2 mM DTT; serial dilutions of S-tagged mImpα1ΔIBB, 1 hr at 4°C; detected with S-protein-HRP; apparent Kd, one-site specific binding, duplicates
details: both partners purified
measurement_name: pKd
Please note pKd is a logarithmic value: minus log10 of concentration in mol/L. Answer with that number alone.

Prompt line: Using the record for SGKKRRKER (source: E. coli BL21(DE3), purified) [GST-TNRC6A cNLS P5 mutant (Arg1170 to Lys)] , state its measured pKd.
Response line: 5.94

Prompt line: Item SGKKKRKER (source: E. coli BL21(DE3), purified) [GST-TNRC6A cNLS P3, P5 mutant (Arg1168Lys and Arg1170Lys)] : provide pKd
Response line: 6.05

Prompt line: Please list pKd recorded for the binder SGKKKRRER (also called P3 TNRC6A mutant; source: E. coli BL21(DE3), purified) [GST-TNRC6A cNLS P3 mutant (Arg1168Lys)]
Response line: 5.73

Prompt line: Quickly give me recorded pKd for SGKKRRRER (TNRC6A classical nuclear localisation signal, mouse residues 1164-1172 = human residues 1179-1187 (isoform 1; 926-934 in isoform 2); the motif is strictly conserved between mouse and human; Cloned into pGEX-6P with overlapping oligonucleotides; also called GST-cNLS; GST-NLS; source: E. coli BL21(DE3), purified)
Response line: 7.12

Prompt line: Using the record for PPKKRRRER (also called TNRC6A N-term mutant; source: E. coli BL21(DE3), purified) [GST-TNRC6A cNLS N-term mutant (1164Ser-Gly1165 substituted to prolines)] , state its measured pKd.
Response line: 7.72
